Recorded values, source paper PMC4051630.

The reader will find reported Melting temperature (Tm) shift values listed item by item below.
Assay Target: CDK2 + Cyclin E (Homo sapiens, UniProt P24941)
Construct: CDK2 (P24941); 1–299; His-tag; made in house; host or cells: Escherichia coli
Procedure Details: Differential Scanning Fluorimetry (DSF) Tm shift
Assay type: binding
Measurement Conditions: CDK2 + Cyclin E; 2 µM protein, 10 µM inhibitor; average of 3 experiments, each in duplicate

Check out these entries, answers already filled in.
[[record]]
compound = "O=C1NC(=O)c2c1c1c3ccccc3n3c1c1c2c2ccccc2n1C1CCC3O1"
measured_parameter = "Melting temperature (Tm) shift"
observed = "0.0 degrees Celcius"

[[record]]
compound = "O=C1c2ccccc2-c2n[nH]c3cccc1c23"
measured_parameter = "Melting temperature (Tm) shift"
observed = "0.3 degrees Celcius"

[[record]]
compound = "c1nc2nc(Nc3ccc(N4CCOCC4)cc3)nc(NC3CCCCC3)c2[nH]1"
measured_parameter = "Melting temperature (Tm) shift"
observed = "0.8 degrees Celcius"


In plain terms, "CC(C)n1cnc2c(Nc3cccc(Cl)c3)nc(NCCO)nc21" has a documented Melting temperature (Tm) shift of 1.7 degrees Celcius

Input "CCCCc1c(-c2ccc(O)cc2)[nH]c2nccnc12" . Output Melting temperature (Tm) shift: 1.4 degrees Celcius

Quick note, Melting temperature (Tm) shift for "COc1cc2ncnc(Nc3ccc(Oc4ccccc4)cc3)c2cc1OC" landed at 0.2 degrees Celcius

Value of Melting temperature (Tm) shift reported for the compound "Nc1cccc(-c2cc3c(Oc4cccc(O)c4)ncnc3[nH]2)c1" is 0.2 degrees Celcius

"O=C1Cc2c([nH]c3ccc(Br)cc23)-c2ccccc2N1" has a reported Melting temperature (Tm) shift of 0.3 degrees Celcius

For record "Cc1ccc([N+](=O)[O-])cc1S(=O)(=O)N(C)N=Cc1cnc2ccc(Br)cn12.Cl.O.O" the listed Melting temperature (Tm) shift is 0.7 degrees Celcius
